Origin of the recorded values: the supplement of paper PMC6555819

system: LXRb:RXRa (NR concentration 270 nM, RXRa partner concentration 90 nM); test: PBM binding z-score (relative to random genomic background probes); higher = stronger binding; sequences stand for … in GC…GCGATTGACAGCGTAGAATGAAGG
assay endpoint: PBM binding z-score
Answers are plain numbers.

Worked cases, answers included:
CTCGAAAGGTCGGTTGAGGTGAGTAAACGGATAA ... 1.39
CCGAGTCGGTTACGAGGGGGCATTCAGTGCGAAT ... 4.05
ACTAGTTGTTCAGCTGAGGTCACACACAATTCGG ... 3.55
ACTAGCAGGTCAAGGGTCACTCAAGATTAGTCCG ... 4.88
CTATGTAGGTTGAGGGGGTCATTCAGTTTGAAAG ... 6.24
TCTCGGAGGACACGAAAGGTCAGAACTCGACATC ... 3.19
CCGAGTAGGTTACGAGGGGGCATCCAGTGCGAAT ... 5.77
CGTCTAAGGTCAAGGTCAGTGAAAGAGACTCGAA ... 5.02
CCAGACAGGTGAAAGGTAACTCACTCTGGTACGC ... 0.938
CGAACCAGGTCAAAGGACAGTGAAAGGCGACGTA ... 2.63

// input: 2 sequences below; output: PBM binding z-score for each
1. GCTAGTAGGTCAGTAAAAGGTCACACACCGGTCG
2. CCGACTGGGTCAAAGGTTACCATACTCAGTACGA

### Response
[5.01, 4.02]

* * *

What PBM binding z-score was measured for each of the following?
tested on: VDR:RXRa (NR concentration 270 nM, RXRa partner concentration 90 nM); assay: PBM binding z-score (relative to random genomic background probes); higher = stronger binding; sequences stand for … in GC…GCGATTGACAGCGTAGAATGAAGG
Numbers only.

CGTCCAAGGTCAAGGTCACTGAAAGAGACTCGAA ... 5.49
ATCGAAAGGTCGAGGAGGTGAGTATACACCGTTT ... 4.25
TCGAGTAGGTTACGCGGGCATTCAGGGATGAAGA ... -0.157
AGTCATAGTTCACTAGGTAACGTAAGATTCAGCT ... 1.12
ATATGTAGGTTAGGGTCATTCATAAAGTAGGGAA ... 4.67
CGAACTAGGTCCAAGGACAGTGAAAGGCGACGTA ... -0.332

// input: 4 sequences below; output: PBM binding z-score for each
1. TCGAGTAGGTTACGGGGGCATCCAGGGATGAAGA
2. AGTAGCAGGCCAAGGGTCACTCAAGATTAGTCCG
3. TAGCCTAGGTCATTCAGGGGCCAGAATAGAAAGC
4. CTTAGTTGGTCAAGGTCACACACGCTATAGGTAC

### Response
3.51
2.94
3.17
4.52

// input: 2 sequences below; output: PBM binding z-score for each
1. ATCTCTAGGTAAAGTTCATTGAAAGATCGATAGA
2. CGAACTAGGTCACCAGGACAGTGATGAGGTTGGA

### Response
1. 3.08
2. 2.17

* * *

tested on: PPARa:RXRa (NR concentration 270 nM, RXRa partner concentration 90 nM); experiment: PBM binding z-score (relative to random genomic background probes); higher = stronger binding; sequences stand for … in GC…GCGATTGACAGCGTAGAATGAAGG
assay endpoint: PBM binding z-score

ATCGAATGGTCGAGGTGAGTATAGAGAAAGGGAA ... 0.069

// input: 3 sequences below; output: PBM binding z-score for each
1. TAGCCAAGGTCATTCAGGGGCCAGTATAGAAAGC
2. CCGAGTAGGGTACGAGGGGGCATTCAGTGCGAAT
3. CAACCTAGGTCACGAAAGGTCAAAGTCGAATGAC

### Response
1. 5.19
2. 2.53
3. 6.92

// input: 2 sequences below; output: PBM binding z-score for each
1. CCAGACAGGTGAAAGGTAACTCCGTCTGGTACGC
2. CGTCCAAGGTCAGAGAGGTCACTGAATGCCGAGT

### Response
1: 3.32; 2: 5.61

* * *

system: RARb homodimer (NR concentration 270 nM); assay: PBM binding z-score (relative to random genomic background probes); higher = stronger binding; sequences stand for … in GC…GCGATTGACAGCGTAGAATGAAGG
Satisfied means recorded PBM binding z-score is 3 or above; Not satisfied means it is below 3.

Here are 4 sequences together with their reported answers.
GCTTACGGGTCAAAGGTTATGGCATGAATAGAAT ... Satisfied
TCGAGTAGCTTACGGGGGCATTCAGGGATGAAGA ... Not satisfied
ATATGTAGGTTACATCCGAGTCATTCAGGCTATG ... Not satisfied
CCTTACGGGTCAGGAGGTTATAGCACGACGAGCG ... Satisfied

### Prompt # bool: PBM binding z-score of ATCGAAAAGTCGAAGGTGAGTATACCCACCCGAA >= 3
### Response Not satisfied

### Prompt # bool: PBM binding z-score of ATGGAAAGGTCGTGAGGTGAGTATACAGAAAGGC >= 3
### Response Satisfied

### Prompt # bool: PBM binding z-score of CCGAGTAGGTTACGAGGGGGCATTCAATGCGAAT >= 3
### Response Not satisfied

### Prompt # bool: PBM binding z-score of CCTGGCAGGCCAGGGTCACTCAAGCATTTCGCTT >= 3
### Response Not satisfied

### Prompt # bool: PBM binding z-score of ACTAGCAGGCCAAGGGTGACTCAAGATTAGTCCG >= 3
### Response Not satisfied

### Prompt # bool: PBM binding z-score of TATCCTAGGTCAGATCGGGCCAGTATACGCTATA >= 3
### Response Not satisfied

### Prompt # bool: PBM binding z-score of CTGAGTAGGTTACGAGGGGGCATTCAGTGCGAAT >= 3
### Response Not satisfied

* * *

test system: PPARa:RXRa (NR concentration 270 nM, RXRa partner concentration 90 nM); experiment: PBM binding z-score (relative to random genomic background probes); higher = stronger binding; sequences stand for … in GC…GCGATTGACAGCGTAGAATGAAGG
assay endpoint: PBM binding z-score
Numbers only.

TGTCAAAGCTCAAAGGTAACGTAAGTATCCACAC ... 1.04

// input: 6 sequences below; output: PBM binding z-score for each
1. CAAACTAGGTCACGAGGTCAAAGTCCGCTTCCCG
2. CCTACTGGGCCAAAAAGGCCATTGATGCCGATAA
3. CTATGTAGGTTAAGGGGGTTATTCAGTTTGAAAG
4. ATACCAAGGTGATCGTGAGTTCGTTGATACTAAC
5. ATCGAAACGTCGACGAGGTGAGTATACACCGTTT
6. TCTCGGATGACACGAAAGGTCAGAGCTCGACATC

### Response
1: 6.85; 2: 0.629; 3: 5.34; 4: 0.602; 5: -0.269; 6: 3.8

// input: 2 sequences below; output: PBM binding z-score for each
1. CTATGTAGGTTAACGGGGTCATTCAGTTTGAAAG
2. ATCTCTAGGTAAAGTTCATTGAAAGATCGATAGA

### Response
1. 6.19
2. 3.5

// input: 8 sequences below; output: PBM binding z-score for each
1. CCTTACCGGTCAAGGTTATAGCACGGGTGGTACG
2. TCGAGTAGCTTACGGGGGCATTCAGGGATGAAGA
3. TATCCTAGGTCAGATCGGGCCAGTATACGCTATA
4. CCTACTGGGCCACTCAGAGGTCATTGATCATATG
5. TCGCGTAGGTTACGGGGGCATTCAGGGATGAAGA
6. CTGTGTAGGTTAAGGGGGTCATTCAGTTTGAAAG
7. CCCACTGGGCCATTCAGAGGTCATTGATCATATG
8. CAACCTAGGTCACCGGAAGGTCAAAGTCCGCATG

### Response
1.83
2.12
2.49
3.98
4.31
5.67
3.79
5.6

// input: 7 sequences below; output: PBM binding z-score for each
1. ATATGTAGGTTAAGGGTCATGCAGGTTGGTTCGC
2. ATATGTAGGTTAGCTGGAGTCATTCAGACTAGGC
3. CTATGTAAGTTAAGGGGGTCATTCAGTTTGAAAG
4. CGAACTAGGTTAAAGGACAGTGAAAGGCGACGTA
5. CCGAGTAGGTTACGAGGGGGCTTTCAGTGCGAAT
6. CGCCCAAGGTCAGCAGGTCAGTGAAAGCGACGTG
7. CCTACTGGGCCAAGGTCATAGATCAGTCAAAGCA

### Response
1. 6.71
2. 2.34
3. 5.31
4. 3.82
5. 2.66
6. 4.81
7. 4.19

// input: 2 sequences below; output: PBM binding z-score for each
1. TCATATAGGTTAAGGTGAAAGTCGAACGATATGA
2. CTATGTAGGTTAAGGGCGTCATTCAGTTTGAAAG

### Response
3.44
3.53
